Target: hGcgR (Homo sapiens, UniProt P47871)
Sequence (P47871 26-477): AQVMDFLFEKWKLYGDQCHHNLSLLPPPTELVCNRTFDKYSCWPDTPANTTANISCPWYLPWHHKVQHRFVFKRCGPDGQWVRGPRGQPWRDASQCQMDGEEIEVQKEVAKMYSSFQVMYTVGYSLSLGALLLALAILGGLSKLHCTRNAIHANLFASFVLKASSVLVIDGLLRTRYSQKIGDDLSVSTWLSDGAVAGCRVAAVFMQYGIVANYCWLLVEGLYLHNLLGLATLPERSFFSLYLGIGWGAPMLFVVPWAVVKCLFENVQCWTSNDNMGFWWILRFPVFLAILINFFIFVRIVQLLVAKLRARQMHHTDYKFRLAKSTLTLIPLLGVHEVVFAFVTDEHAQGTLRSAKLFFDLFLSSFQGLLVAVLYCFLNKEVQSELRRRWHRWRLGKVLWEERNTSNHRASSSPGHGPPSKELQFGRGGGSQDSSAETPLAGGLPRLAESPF
Assay: Functional cAMP activation in the presence of 0.1% casein (no HSA);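 note: intracellular cAMP rise after 30 min at 37 °C, read by HTRF against a cAMP standard curve, scaled from buffer only (0%) to maximal control ligand response (100%)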
Type: cell-based
Settings: in the presence of 0.1% casein (no HSA); geometric mean; read-out: Relative cAMP EC50, hGcgR
pEC50: −log10 of the molar value. Starred links: 1 amine or outer side, 2 acyl side, 3 side chain; linkers in the order of their positions; H or OH if unused. Non-standard residues stand in square brackets, D forms with d. Groups on a side chain read outwards from the residue. No end group written: not given here. *: point of attachment. C20 diacid = O=C(O)CCCCCCCCCCCCCCCCCCC(=O)*; C18 diacid = O=C(O)CCCCCCCCCCCCCCCCC(=O)*; αMePhe(2-F) = C[C@](N)(Cc1ccccc1F)C(=O)O; γGlu = O=C(O)[C@H](CCC(=O)[*:2])N[*:1]; αMe4Pal = C[C@](N)(Cc1ccncc1)C(=O)O; 4Pal = N[C@@H](Cc1ccncc1)C(=O)O; αMeL = CC(C)C[C@](C)(N)C(=O)O; Orn = NCCC[C@H](N)C(=O)O; AEEA = NCCOCCOCC(=O)O; Aib = CC(C)(N)C(=O)O
Quick list: pEC50 per entry.

- substance: "H-Y[Aib]QGT[αMePhe(2-F)]TSDYSKLLDKIAQK([AEEA-γGlu-C20 diacid])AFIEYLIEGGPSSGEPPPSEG-NH2 [Example 304]"
  pEC50: 8.64
- substance: "H-Y[Aib]QGTFTSDFSK[αMeL]LDKK([AEEA-γGlu-C20 diacid])AQ[Aib]AFIEYLLAGGPSSGAPPPGGS-NH2 [Example 16]"
  pEC50: 8.05
- substance: "H-Y[Aib]QGTFTSD[4Pal]SQ[αMeL]LDKK([γGlu-γGlu-C18 diacid])AQ[αMe4Pal]AFIEYLIE[Aib]GPSSGAPPPSGSEEE-NH2 [Example 900]"
  pEC50: 8.32
- substance: "H-Y[Aib]QGTFTSD[4Pal]SQ[αMeL]LDKK([AEEA-γGlu-γGlu-C18 diacid])AQ[αMe4Pal]AFIEYLIE[Aib]GPSSGAPPPSGS-NH2 [Example 860]"
  pEC50: 7.96
- substance: "H-Y[Aib]QGTFTSDFS[Orn][αMeL]LDKK([AEEA-γGlu-C18 diacid])AQ[Aib]AFIEWLLEGGSSSGAPPPGGT-NH2 [Example 272]"
  pEC50: 8.10
- substance: "Y[Aib]QGTFTSD[4Pal]SQ[αMeL]LDKK([γGlu-γGlu-C18 diacid])AQ[αMe4Pal]AFIE[αMe4Pal]LIE[Aib]GPSSGAPPPSGSEE-NH2 [Example 1122]"
  pEC50: 7.99

* * *

Target: hGIPR (Homo sapiens, UniProt P48546)
Sequence (P48546 22-466): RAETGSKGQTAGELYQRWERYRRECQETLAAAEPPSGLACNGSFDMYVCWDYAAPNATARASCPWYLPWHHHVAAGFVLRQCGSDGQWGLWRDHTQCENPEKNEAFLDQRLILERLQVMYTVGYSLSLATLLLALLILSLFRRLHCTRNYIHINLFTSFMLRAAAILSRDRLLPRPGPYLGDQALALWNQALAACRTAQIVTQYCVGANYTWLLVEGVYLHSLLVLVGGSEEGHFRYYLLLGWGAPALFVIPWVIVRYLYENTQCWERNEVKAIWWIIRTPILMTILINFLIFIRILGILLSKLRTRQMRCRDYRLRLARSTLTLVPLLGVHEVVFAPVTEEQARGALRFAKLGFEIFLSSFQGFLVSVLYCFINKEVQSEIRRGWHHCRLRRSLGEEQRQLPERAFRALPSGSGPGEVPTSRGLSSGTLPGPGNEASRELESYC
Assay: Functional cAMP activity in the presence of 1% HSA
Type: cell-based
Conditions: read-out: cAMP Rel EC50, hGIPR
Starred links: 1 amine or outer side, 2 acyl side, 3 side chain; linkers in the order of their positions; H or OH if unused. Non-standard residues stand in square brackets, D forms with d. Groups on a side chain read outwards from the residue. No end group written: not given here. *: point of attachment. C20 diacid = O=C(O)CCCCCCCCCCCCCCCCCCC(=O)*; C18 diacid = O=C(O)CCCCCCCCCCCCCCCCC(=O)*; αMePhe(2-F) = C[C@](N)(Cc1ccccc1F)C(=O)O; γGlu = O=C(O)[C@H](CCC(=O)[*:2])N[*:1]; αMe4Pal = C[C@](N)(Cc1ccncc1)C(=O)O; αMeY = C[C@](N)(Cc1ccc(O)cc1)C(=O)O; 4Pal = N[C@@H](Cc1ccncc1)C(=O)O; αMeL = CC(C)C[C@](C)(N)C(=O)O; αMeS = C[C@](N)(CO)C(=O)O; Orn = NCCC[C@H](N)C(=O)O; AEEA = NCCOCCOCC(=O)O; Aib = CC(C)(N)C(=O)O
Note to self: class labels come from recorded EC50, ranges listed here: low end = under 3 nM, middle = from 3 nM up to 30 nM, high end = 30 nM and over

- substance: "H-Y[Aib]QGT[αMePhe(2-F)]TSD[4Pal][αMeS]ILLD[Orn]K([γGlu-γGlu-C18 diacid])AQ[Aib][Orn]FI[dE]YLIEGGPSSGEPPPSGTGE-NH2 [Example 548]"
  answer_label: "middle"
- substance: "Y[Aib]QGTFTSDYSI[αMeL]LDKQAAK([AEEA-AEEA-γGlu-C20 diacid])QFIEYLIA[Aib]GPSSGEPPPSEG-NH2 [Example 349]"
  answer_label: "high end"
- substance: "H-Y[Aib]QGTFTSD[4Pal]S[Orn][αMeL]LD[Orn]K([γGlu-γGlu-C18 diacid])AQ[αMe4Pal][Orn]FIE[αMeY]LIEGGPSSGAPPPSGSEE-NH2 [Example 974]"
  answer_label: "high end"
- substance: "H-Y[Aib]QGTFTSD[4Pal]SQ[αMeL]LD[Orn]K([dE-γGlu-C18 diacid])AQ[αMe4Pal]AFIE[αMeY]LIAGGPSSGAPPPSGSEE-NH2 [Example 1074]"
  answer_label: "middle"
- substance: "H-Y[Aib]QGT[αMePhe(2-F)]TSD[4Pal]SILLDKK([γGlu-γGlu-C18 diacid])AQ[Aib]AFIE[αMe4Pal]LEEGGPSSGAPPPSGTE-NH2 [Example 552]"
  answer_label: "low end"
- substance: "H-Y[Aib]QGT[αMePhe(2-F)]TSD[4Pal]SILLDKQAQK([AEEA-AEEA-γGlu-C20 diacid])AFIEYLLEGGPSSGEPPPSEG-NH2 [Example 347]"
  answer_label: "middle"
- substance: "H-Y[Aib]QGT[αMePhe(2-F)]TSD[4Pal][αMeS]I[αMeL]LD[Orn]K([AEEA-γGlu-C18 diacid])AQ[Aib][Orn]FI[dE][αMeY]LIEGGPSSGEPPPEGTGE-NH2 [Example 697]"
  answer_label: "low end"
- substance: "H-Y[Aib]QGTFTSD[4Pal]SQ[αMeL]LDKK([AEEA-γGlu-C18 diacid])AQ[αMe4Pal]AFIEYLIE[Aib]GPSSGAPPPSG[4Pal]-NH2 [Example 835]"
  answer_label: "middle"
- substance: "H-Y[Aib]QGT[αMePhe(2-F)]TSD[4Pal][αMeS]I[αMeL]LD[Orn]K([AEEA-γGlu-C18 diacid])AQ[αMe4Pal]EFI[dE][αMeY]LIEGGPSSGAPPPSGSE-NH2 [Example 712]"
  answer_label: "low end"
- substance: "H-Y[Aib]QGTFTSD[4Pal]S[Orn][αMeL]LDKK([γGlu-γGlu-C18 diacid])AQ[αMe4Pal]AFIE[αMe4Pal]LIEGGPSSGAPPPSGSEE-NH2 [Example 958]"
  answer_label: "middle"
